# Tested on: neuronal cultures
# test_description: Functional neuronal phenotype in neuronal cultures
# Type: cell-based
# Set-up: key: Antagonist: antagonists (block Abeta signaling); Agonist: agonists (block Abeta signaling with U-shaped dose-response curve and toxicity at high doses); Inactive: inactive (no effect in neuronal cultures)
reported_property: neuronal phenotype

>>> df
                             molecule_smiles  assay_result
 0  COc1cc(CCC(C)(C)N2Cc3ccc(S(C)(=O)=O)cc3C2)ccc1Cl    Antagonist
 1  C[C@H](CCc1ccc(Cl)c(Cl)c1)N1Cc2cc(Cl)c(Cl)cc2C1      Inactive
 2  CN(C)C(=O)c1cccc2c1CN(C(C)(C)CCc1ccc(O)c(OC(C)(C)C)c1)C2      Inactive
 3  CC(C)(C#Cc1ccc2[nH]ncc2c1)N1Cc2ccc(S(C)(=O)=O)cc2C1      Inactive
 4  COc1cc(CC[C@@H](C)N2Cc3ccc(C(F)(F)F)cc3C2)ccc1O    Antagonist
 5  CC(=O)Oc1ccc(CCC(C)(C)N2Cc3ccc(S(C)(=O)=O)cc3C2)cc1OC(C)(C)C      Inactive
 6  CC(C)(CCc1ccc(O)c(Cl)c1)N1Cc2ccc(S(C)(=O)=O)cc2C1      Inactive
 7  COc1cc(CCC(C)(C)N2Cc3cccc(S(C)(=O)=O)c3C2)ccc1O      Inactive
 8  CC(C)(C)Oc1cc(CCC(C)(C)N2Cc3c(F)ccc(F)c3C2)ccc1O    Antagonist
 9  CC(C)(CCc1ccc(O)c(OC(F)(F)F)c1)N1Cc2cccc(F)c2C1    Antagonist
10  CC(C)(C)Oc1cc(CCC(C)(C)n2cc3ccc(S(C)(=O)=O)cc3c2)ccc1O    Antagonist
11  COc1cc(CCC(C)(C)N2Cc3cccc(C(=O)N(C)CCN(C)C)c3C2)ccc1O      Inactive
12  CN(C)C(=O)c1cccc2c1CN(C(C)(C)CCc1ccc(O)c(OC(F)(F)F)c1)C2      Inactive
13     C[C@H](CCc1ccc(F)cc1)N1Cc2cccc(F)c2C1      Inactive
14  COc1cc(CC[C@@H](C)N2Cc3cc4c(cc3C2)OCO4)ccc1O    Antagonist

###

# System: neuronal cultures
# test_description: Functional neuronal phenotype in neuronal cultures
# Format: cell-based
# Design: key: Antagonist: antagonists (block Abeta signaling); Agonist: agonists (block Abeta signaling with U-shaped dose-response curve and toxicity at high doses); Inactive: inactive (no effect in neuronal cultures)
reported_property: neuronal phenotype

                                    compound  assay_result
 0  CC(C)Oc1cc(CCC(C)(C)N2Cc3cccc(F)c3C2)ccc1O [compound 28]    Antagonist
 1  COc1cc2c(cc1OC)CN(C(C)(C)CCc1ccc(F)cc1)C2 [compound 34]    Antagonist
 2  COc1cccc(CCC(C)(C)n2cc3ccc(S(C)(=O)=O)cc3c2)c1 [compound 104]      Inactive
 3  COc1cc(CCC(C)(C)N2Cc3ccc(S(C)(=O)=O)cc3C2)ccc1O [compound 77]    Antagonist
 4  C[C@H](CCc1ccc(Cl)c(Cl)c1)N1Cc2cc3c(cc2C1)OCO3 [compound 10]    Antagonist
 5  CC(C)Oc1cc(CCC(C)(C)N2Cc3ccc(S(C)(=O)=O)cc3C2)ccc1O [compound 70]      Inactive
 6  COc1ccc(CCC(C)(C)N2Cc3ccc(S(C)(=O)=O)cc3C2)cc1OC [compound 101]      Inactive
 7  C[C@H](CCc1ccc(O)c(OC(F)(F)F)c1)N1Cc2ccc(F)cc2C1 [compound 31]    Antagonist
 8  CC(CCc1ccc(Cl)c(Cl)c1)N1Cc2ccc3ccccc3c2C1 (stereo not drawn) [compound 19]    Antagonist
 9  COc1cc(CCC(C)(C)N2Cc3cccc(C(=O)N4CCN(C)CC4)c3C2)ccc1O [compound 82]      Inactive
10  C[C@H](CCc1ccc(Cl)c(Cl)c1)N1Cc2cccc(F)c2C1 [compound 9]    Antagonist
11  COc1ccc(CCC(C)(C)N2Cc3cccc(C(=O)N4CCNCC4)c3C2)cc1Cl [compound 118]      Inactive
12  C[C@H](CCc1ccc(O)c(OC(C)(C)C)c1)N1Cc2cccc(F)c2C1 [60B]    Antagonist
13  COc1cc(CCC(C)(C)N2Cc3cccc(C(=O)N4CCN(C(C)=O)CC4)c3C2)ccc1O [compound 83]      Inactive
14  C[C@H](CCc1ccc(F)cc1)N1Cc2cc3c(cc2C1)OCO3 [compound 23]    Antagonist
15  COc1cc(CC[C@@H](C)N2Cc3cccc(F)c3C2)ccc1O [compound 8]    Antagonist
16  COc1cc(CCC(C)(C)N2Cc3cc4c(cc3C2)OCO4)ccc1OCCO [compound 47]      Inactive

###

# assay_target: potassium channel hERG (Homo sapiens (Human))
# Sequence (Q12809 whole entry): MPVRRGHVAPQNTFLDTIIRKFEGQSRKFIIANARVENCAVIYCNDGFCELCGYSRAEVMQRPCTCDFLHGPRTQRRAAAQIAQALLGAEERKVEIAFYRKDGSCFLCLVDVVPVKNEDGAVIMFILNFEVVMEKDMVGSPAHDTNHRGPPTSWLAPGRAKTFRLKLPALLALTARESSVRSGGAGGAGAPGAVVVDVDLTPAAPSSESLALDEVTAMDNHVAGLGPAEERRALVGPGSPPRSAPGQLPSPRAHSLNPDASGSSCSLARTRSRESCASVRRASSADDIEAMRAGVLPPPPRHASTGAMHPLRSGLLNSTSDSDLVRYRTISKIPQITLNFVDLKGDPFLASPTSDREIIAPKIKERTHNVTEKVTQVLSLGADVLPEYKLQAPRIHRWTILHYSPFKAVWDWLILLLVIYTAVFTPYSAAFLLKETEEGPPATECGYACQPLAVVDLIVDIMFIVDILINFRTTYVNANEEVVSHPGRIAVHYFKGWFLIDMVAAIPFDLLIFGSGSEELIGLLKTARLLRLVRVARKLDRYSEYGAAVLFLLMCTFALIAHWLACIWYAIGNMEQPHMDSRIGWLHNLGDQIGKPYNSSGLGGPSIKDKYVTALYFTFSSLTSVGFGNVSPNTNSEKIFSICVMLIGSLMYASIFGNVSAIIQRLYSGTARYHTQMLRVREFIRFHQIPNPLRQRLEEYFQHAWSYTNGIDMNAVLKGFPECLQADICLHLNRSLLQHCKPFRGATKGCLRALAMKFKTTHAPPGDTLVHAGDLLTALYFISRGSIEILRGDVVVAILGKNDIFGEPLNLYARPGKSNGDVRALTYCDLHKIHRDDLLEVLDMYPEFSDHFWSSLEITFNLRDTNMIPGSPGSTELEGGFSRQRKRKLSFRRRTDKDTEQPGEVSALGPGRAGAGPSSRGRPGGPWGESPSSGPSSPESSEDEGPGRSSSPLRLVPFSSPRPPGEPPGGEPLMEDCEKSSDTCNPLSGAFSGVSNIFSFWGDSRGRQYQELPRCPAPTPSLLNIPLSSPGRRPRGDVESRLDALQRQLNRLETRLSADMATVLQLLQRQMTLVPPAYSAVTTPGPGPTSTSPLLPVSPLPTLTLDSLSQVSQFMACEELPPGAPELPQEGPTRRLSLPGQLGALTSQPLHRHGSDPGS
# test_description: In vitro toxicity, hERG inhibition
# Type: biochemical
The class of a record is decided solely by its measured IC50; consult group 1 = under 0.9 µM, group 2 = from 0.9 µM up to 30 µM, group 3 = 30 µM and over

In [3]: df
Out[3]:
                                    compound  classification
 0  CC(C)(CCc1ccc(O)c(OC(F)(F)F)c1)N1Cc2c(F)ccc(F)c2C1 [compound 55]         group 3
 1  COc1cc(CCC(C)(C)N2Cc3cccc(C(=O)NCCN(C)C)c3C2)ccc1O [compound 78]         group 3
 2  COc1cc(CCC(C)(C)N2Cc3cccc(C(=O)N(C)CCO)c3C2)ccc1O [compound 85]         group 3
 3  CN(C)C(=O)c1cccc2c1CN(C(C)(C)CCc1ccc(O)c(OC(C)(C)C)c1)C2 [compound 59]         group 2
 4  CC(C)Oc1ccc(CC[C@@H](C)N2Cc3cc4c(cc3C2)OCO4)cc1OC(C)C [compound 40]         group 1
 5  COc1cc(CC[C@@H](C)N2Cc3ccc(Cl)cc3C2)ccc1O [compound 1]         group 1
 6  COc1cc(CCC(C)(C)N2Cc3cccc(S(C)(=O)=O)c3C2)ccc1O [compound 64]         group 2
 7  C[C@H](CCc1ccc(F)cc1)N1Cc2ccc(F)cc2C1 [compound 22]         group 1
 8  COc1cc(CC[C@@H](C)N2Cc3cccc(S(C)(=O)=O)c3C2)ccc1O [compound 65]         group 2
 9  COc1cc(CCC(C)(C)N2Cc3cccc(C(=O)N(C)CCN(C)C)c3C2)ccc1O [compound 81]         group 2
10  CC(C)(CCc1ccc(O)c(OC(F)(F)F)c1)N1Cc2ccc(S(C)(=O)=O)cc2C1 [compound 61]         group 1
11  COc1cc(CCC(C)(C)N2Cc3cccc(C(=O)NCCO)c3C2)ccc1O [compound 79]         group 2
12  C[C@H](CCc1ccc(O)c(OC(F)(F)F)c1)N1Cc2cc3c(cc2C1)OCO3 [compound 24]         group 1
13  C[C@H](CCc1ccc(Cl)c(Cl)c1)N1Cc2ccc3ccccc3c2C1 [compound 19]         group 3
14  Cc1ccc2c(c1)CN([C@H](C)CCc1ccc(Cl)c(Cl)c1)C2 [compound 13]         group 1
15  CN(C)C(=O)c1cccc2c1CN(C(C)(C)CCc1ccc(O)c(OC(F)(F)F)c1)C2 [compound 57]         group 2
16  CC(C)(C)Oc1cc(CCC(C)(C)N2Cc3ccc(S(C)(=O)=O)cc3C2)ccc1O [compound 62]         group 2
17  COc1cc(CCC(C)(C)N2Cc3cccc(F)c3C2)ccc1O [compound 53]         group 2

###

# assay_target: Sigma-2 receptor
# test_description: Sigma-2 receptor competitive radioligand binding assay
# applied_conditions: read-out: Sigma-2 Receptor Affinity, Ki
reported_property: Ki (nM)

In [3]: df
Out[3]:
                            molecule_smiles  result_units  qualifier_operator  assay_result
0  COc1cc(CC[C@@H](C)N2Cc3cc(OC)c(OC)cc3C2)ccc1O            nM                   =            68
1  CC(C)(C)Oc1cc(CCC(C)(C)N2Cc3cccc(C(=O)O)c3C2)ccc1O            nM                   >         10000
2  COc1cc2c(cc1OC)CN([C@H](C)CCc1ccc(Cl)c(Cl)c1)C2            nM                   =          0.44
3  CC(C)(CCc1ccc(O)c(OC(F)(F)F)c1)N1Cc2cccc(F)c2C1            nM                   =            18
4  COc1cc(CCC(C)(C)N2Cc3ccc(F)cc3C2)ccc1OC(=O)N(C)C            nM                   =            37
